System: UniProt P30556 | Read-out: pIC50
Sequence (P30556 whole entry): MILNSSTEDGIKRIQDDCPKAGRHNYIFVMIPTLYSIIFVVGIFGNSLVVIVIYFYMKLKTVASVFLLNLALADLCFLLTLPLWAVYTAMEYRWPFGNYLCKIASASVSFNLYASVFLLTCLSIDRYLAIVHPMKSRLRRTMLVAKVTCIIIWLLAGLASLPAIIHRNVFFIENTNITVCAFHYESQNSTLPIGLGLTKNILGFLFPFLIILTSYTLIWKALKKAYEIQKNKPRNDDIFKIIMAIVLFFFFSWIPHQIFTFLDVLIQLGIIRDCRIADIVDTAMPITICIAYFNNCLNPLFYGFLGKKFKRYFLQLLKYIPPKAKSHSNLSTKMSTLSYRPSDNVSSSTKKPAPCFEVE
Units for pIC50: none; it is -log10 of a concentration expressed in mol/L.

Example molecules with recorded pIC50:
molecule=CCCc1nc2c(C)cc(C(=O)NCCN3CCOCC3)cc2n1Cc1ccc(-c2ccccc2S(=O)(=O)Nc2onc(C)c2C)cc1 reported_endpoint=pIC50 reported_result=7.51
molecule=CCCc1nc2c(C)cc(C(=O)NCc3ccc(OC)c(OC)c3)cc2n1Cc1ccc(-c2ccccc2S(=O)(=O)Nc2onc(C)c2C)cc1 reported_endpoint=pIC50 reported_result=7.25
molecule=CCCc1nc2c(C)cc(C(=O)NCc3ccccc3)cc2n1Cc1ccc(-c2ccccc2S(=O)(=O)Nc2onc(C)c2C)cc1 reported_endpoint=pIC50 reported_result=7.55
molecule="CCCc1cc(Cn2c(CC)nc3c(C)cc(C)nc32)ccc1OC(C(=O)NS(=O)(=O)c1ccc(C(C)C)cc1)c1ccc2c(c1)OCO2 (centres undefined)" reported_endpoint=pIC50 reported_result=7.89

## Task # pIC50 lookup, item `CCCc1nc2c(C)cc(C(=O)NC(C)C)cc2n1Cc1ccc(-c2ccccc2S(=O)(=O)Nc2onc(C)c2C)cc1`
## Result 6.47

## Task # pIC50 lookup, item `CCCc1nc2c(C)cc(C(=O)NCCN3CCCCC3)cc2n1Cc1ccc(-c2ccccc2S(=O)(=O)Nc2onc(C)c2C)cc1`
## Result 7.03

## Task # pIC50 lookup, item `CCCCc1nn(-c2ccccc2Cl)c(=O)n1Cc1ccc(-c2ccccc2S(=O)(=O)Nc2onc(C)c2C)cc1`
## Result 8.15

## Task # pIC50 lookup, item `CCCCNC(=O)c1cc(C)c2nc(CCC)n(Cc3ccc(-c4ccccc4S(=O)(=O)Nc4onc(C)c4C)cc3)c2c1`
## Result 6.33

## Task # pIC50 lookup, item `CCCc1nc2c(C)cc(C(=O)NCCc3cc(OC)ccc3OC)cc2n1Cc1ccc(-c2ccccc2S(=O)(=O)Nc2onc(C)c2C)cc1`
## Result 7.43

###

# System: Endothelin-1 receptor (Homo sapiens, UniProt P25101)
# Sequence (P25101 whole entry): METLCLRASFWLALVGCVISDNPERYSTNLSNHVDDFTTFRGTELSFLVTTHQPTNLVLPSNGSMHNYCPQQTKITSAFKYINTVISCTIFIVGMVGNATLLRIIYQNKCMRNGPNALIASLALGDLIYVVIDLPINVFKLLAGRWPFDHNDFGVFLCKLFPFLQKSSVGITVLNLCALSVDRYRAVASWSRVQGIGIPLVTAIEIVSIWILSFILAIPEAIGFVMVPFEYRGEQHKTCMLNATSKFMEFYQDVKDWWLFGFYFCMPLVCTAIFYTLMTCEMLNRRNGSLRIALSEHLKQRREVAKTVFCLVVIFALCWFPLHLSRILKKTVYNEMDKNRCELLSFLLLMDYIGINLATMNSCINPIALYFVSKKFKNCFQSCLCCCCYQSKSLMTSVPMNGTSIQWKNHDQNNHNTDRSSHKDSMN
# Procedure Text: Displacement of 125I-labeled endothelin 1 from human ETA receptor expressed in CHO-K1 cells incubated for 4 hrs by gamma counting analysis
Reported Endpoint: pIC50
Units for pIC50: none; it is -log10 of a concentration expressed in mol/L.

smiles_representation=CCCc1nc2c(C)cc(C(=O)NCCN3CCN(C)CC3)cc2n1Cc1ccc(-c2ccccc2S(=O)(=O)Nc2onc(C)c2C)cc1 system="Endothelin-1 receptor (Homo sapiens, UniProt P25101)" reported_endpoint=pIC50 reported_result=5.74
smiles_representation=CCCc1nc2c(C)cc(C(=O)NCc3cccc(OC)c3)cc2n1Cc1ccc(-c2ccccc2S(=O)(=O)Nc2onc(C)c2C)cc1 system="Endothelin-1 receptor (Homo sapiens, UniProt P25101)" reported_endpoint=pIC50 reported_result=6.05
smiles_representation=CCCc1nc2c(C)cc(C(=O)NCCc3cc(OC)ccc3OC)cc2n1Cc1ccc(-c2ccccc2S(=O)(=O)Nc2onc(C)c2C)cc1 system="Endothelin-1 receptor (Homo sapiens, UniProt P25101)" reported_endpoint=pIC50 reported_result=5.52
smiles_representation=CCCc1nc2c(C)cc(C(=O)NCCc3ccccc3F)cc2n1Cc1ccc(-c2ccccc2S(=O)(=O)Nc2onc(C)c2C)cc1 system="Endothelin-1 receptor (Homo sapiens, UniProt P25101)" reported_endpoint=pIC50 reported_result=6.58
smiles_representation=CCCc1nc2c(C)cc(C(=O)NCc3ccc(OC)c(OC)c3)cc2n1Cc1ccc(-c2ccccc2S(=O)(=O)Nc2onc(C)c2C)cc1 system="Endothelin-1 receptor (Homo sapiens, UniProt P25101)" reported_endpoint=pIC50 reported_result=4.55

## Task Could you share what pIC50 was measured for `CCCCc1nn(-c2ccccc2Cl)c(=O)n1Cc1ccc(-c2ccccc2S(=O)(=O)Nc2onc(C)c2C)cc1` , tested on Endothelin-1 receptor (Homo sapiens, UniProt P25101)?
## Result 7.96

## Task Could you share what pIC50 was measured for `CCCc1nc2c(C)cc(C(=O)Nc3ccccc3)cc2n1Cc1ccc(-c2ccccc2S(=O)(=O)Nc2onc(C)c2C)cc1` , tested on Endothelin-1 receptor (Homo sapiens, UniProt P25101)?
## Result 4.57

## Task Could you share what pIC50 was measured for `CCCc1nc2c(C)cc(C(=O)NCCN3CCCCC3)cc2n1Cc1ccc(-c2ccccc2S(=O)(=O)Nc2onc(C)c2C)cc1` , tested on Endothelin-1 receptor (Homo sapiens, UniProt P25101)?
## Result 5.24

## Task Could you share what pIC50 was measured for `CCCc1nc2c(C)cc(C(=O)NC(C)C)cc2n1Cc1ccc(-c2ccccc2S(=O)(=O)Nc2onc(C)c2C)cc1` , tested on Endothelin-1 receptor (Homo sapiens, UniProt P25101)?
## Result 6.56

## Task Could you share what pIC50 was measured for `CCCc1nc2c(C)cc(C(=O)NCc3ccccc3OC)cc2n1Cc1ccc(-c2ccccc2S(=O)(=O)Nc2onc(C)c2C)cc1` , tested on Endothelin-1 receptor (Homo sapiens, UniProt P25101)?
## Result 6.51

## Task Could you share what pIC50 was measured for `CCCc1nc2c(C)cc(C(=O)NCCc3cccc(OC)c3)cc2n1Cc1ccc(-c2ccccc2S(=O)(=O)Nc2onc(C)c2C)cc1` , tested on Endothelin-1 receptor (Homo sapiens, UniProt P25101)?
## Result 4.62

## Task Could you share what pIC50 was measured for `CCCCNC(=O)c1cc(C)c2nc(CCC)n(Cc3ccc(-c4ccccc4S(=O)(=O)Nc4onc(C)c4C)cc3)c2c1` , tested on Endothelin-1 receptor (Homo sapiens, UniProt P25101)?
## Result 6.50

## Task Could you share what pIC50 was measured for `CCCNC(=O)c1cc(C)c2nc(CCC)n(Cc3ccc(-c4ccccc4S(=O)(=O)Nc4onc(C)c4C)cc3)c2c1` , tested on Endothelin-1 receptor (Homo sapiens, UniProt P25101)?
## Result 4.46

## Task Could you share what pIC50 was measured for `CCCc1nc2c(C)cc(C(=O)Nc3ccccc3OC)cc2n1Cc1ccc(-c2ccccc2S(=O)(=O)Nc2onc(C)c2C)cc1` , tested on Endothelin-1 receptor (Homo sapiens, UniProt P25101)?
## Result 6.86

Cited source for all entries: ChEMBL document CHEMBL3734700
